Field: Comparison with the Binding of Phenylalanine. Provide a value for each of the molecules that follow.
target: L1 transport system (large neutral amino acid carrier, L1-system carrier) (Rattus norvegicus); construct: functionality of their endogenous transporters such as the L1-system carrier; endogenous in cells; host or cells: rat primary cerebrovascular (brain microcapillary) endothelial cells, RBEC; assay: Competitive binding assay to the brain L1 transport system (L-[U-14C]phenylalanine on rat primary cerebrovascular endothelial cells); settings: 10^−5 M

>>> measured_value("O=C(Nc1ccc(-c2ccccc2)cc1)NC(Cc1cccc(CSc2nnnn2-c2ccc(O)cc2)c1)C(=O)O (stereo not shown) [Compound 51]")
"3 (X > 20 Rank 3)"
>>> measured_value("NC(Cc1cccc(CN2CCN(c3cccc(Cl)c3)CC2)n1)C(=O)O (stereo not shown) [Compound 86]")
"2 (10 < X < 20 Rank 2)"
>>> measured_value("N[C@@H](Cc1ccccc1)C(=O)NC(Cc1cccc(CSc2cncc3c(C(F)(F)F)cccc23)n1)C(=O)O (stereo partly shown) [Compound 26]")
"0 (X < 0 Rank 0)"
>>> measured_value("NC(Cc1cccc(CSc2ncccn2)n1)C(=O)O (stereo not shown) [Compound 154]")
"0 (X < 0 Rank 0)"
>>> measured_value("O=C(NC(Cc1cccc(CSc2nnc[nH]2)n1)C(=O)O)NC(c1ccccc1)c1ccccc1 (stereo not shown) [Compound 37]")
"3 (X > 20 Rank 3)"

Please look at the items below and tell me Comparison with the Binding of Phenylalanine for each one, in order.
1. NC(Cc1cccc(-c2cccc(Sc3nc4cc([N+](=O)[O-])ccc4s3)c2)c1)C(=O)O (stereo not shown) [Compound 109]
2. NC(Cc1cccc(-c2cccc(Sc3ccc4ccccc4n3)c2)c1)C(=O)O (stereo not shown) [Compound 144]
3. COc1ccc2[nH]c(SCc3ccc(-c4ccc(CC(N)C(=O)O)cc4)cc3)nc2c1 (stereo not shown) [Compound 91]

OUT:
1: 3 (X > 20 Rank 3); 2: 0 (X < 0 Rank 0); 3: 1 (0 < X < 10 Rank 1)

# per-item lookup of Comparison with the Binding of Phenylalanine; items listed below
1. Cc1nnc(SCc2ccc(-c3ccc(CC(N)C(=O)O)cc3)cc2)s1 (stereo not shown) [Compound 126]
2. NC(Cc1cccc(-c2cccc(N3CCN(c4cccc(Cl)c4)CC3)c2)c1)C(=O)O (stereo not shown) [Compound 101]
3. NC(Cc1ccc(-c2ccc(CSc3ccc4ccccc4n3)cc2)cc1)C(=O)O (stereo not shown) [Compound 159]
4. NC(Cc1ccc(-c2ccc(CN3CC=CCC3)cc2)cc1)C(=O)O (stereo not shown) [Compound 44]
5. Cc1nnc(Sc2cccc(-c3cccc(CC(N)C(=O)O)c3)c2)s1 (stereo not shown) [Compound 111]
6. NC(Cc1ccc(-c2ccc(CSc3nc(-c4ccccc4)c(-c4ccccc4)[nH]3)cc2)cc1)C(=O)O (stereo not shown) [Compound 89]

OUT:
["1 (0 < X < 10 Rank 1)", "3 (X > 20 Rank 3)", "0 (X < 0 Rank 0)", "1 (0 < X < 10 Rank 1)", "3 (X > 20 Rank 3)", "1 (0 < X < 10 Rank 1)"]

Required: Comparison with the Binding of Phenylalanine, one value per molecule below.
1. NC(Cc1cccc(CN2CCN(c3ccccn3)CC2)n1)C(=O)O (stereo not shown) [Compound 98]
2. NC(Cc1cccc(CSc2nnc(-c3ccncc3)o2)c1)C(=O)O (stereo not shown) [Compound 10]

OUT:
["1 (0 < X < 10 Rank 1)", "1 (0 < X < 10 Rank 1)"]

====

molecular target: L1 transport system (large neutral amino acid carrier, L1-system carrier) (Rattus norvegicus, UniProt Q63016); construct: functionality of their endogenous transporters such as the L1-system carrier; endogenous in cells; host or cells: rat primary cerebrovascular (brain microcapillary) endothelial cells, RBEC; assay: Competitive binding assay to the brain L1 transport system (L-[U-14C]phenylalanine on rat primary cerebrovascular endothelial cells); conditions: 10^−6 M
Sequence (Q63016 whole entry): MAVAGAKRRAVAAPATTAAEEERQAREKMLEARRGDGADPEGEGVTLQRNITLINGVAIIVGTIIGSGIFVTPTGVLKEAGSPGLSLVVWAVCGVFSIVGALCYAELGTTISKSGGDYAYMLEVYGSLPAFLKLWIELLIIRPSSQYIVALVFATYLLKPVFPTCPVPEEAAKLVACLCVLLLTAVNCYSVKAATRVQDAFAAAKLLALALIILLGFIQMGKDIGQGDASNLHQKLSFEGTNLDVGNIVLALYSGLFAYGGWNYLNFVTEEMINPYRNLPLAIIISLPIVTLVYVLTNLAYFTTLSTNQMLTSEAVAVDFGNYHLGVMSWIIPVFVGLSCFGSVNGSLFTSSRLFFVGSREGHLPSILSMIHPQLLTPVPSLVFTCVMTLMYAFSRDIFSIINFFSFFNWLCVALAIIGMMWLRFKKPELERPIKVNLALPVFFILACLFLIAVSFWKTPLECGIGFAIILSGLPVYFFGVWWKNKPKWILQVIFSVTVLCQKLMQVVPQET
Sequence (Q794F9 whole entry partner): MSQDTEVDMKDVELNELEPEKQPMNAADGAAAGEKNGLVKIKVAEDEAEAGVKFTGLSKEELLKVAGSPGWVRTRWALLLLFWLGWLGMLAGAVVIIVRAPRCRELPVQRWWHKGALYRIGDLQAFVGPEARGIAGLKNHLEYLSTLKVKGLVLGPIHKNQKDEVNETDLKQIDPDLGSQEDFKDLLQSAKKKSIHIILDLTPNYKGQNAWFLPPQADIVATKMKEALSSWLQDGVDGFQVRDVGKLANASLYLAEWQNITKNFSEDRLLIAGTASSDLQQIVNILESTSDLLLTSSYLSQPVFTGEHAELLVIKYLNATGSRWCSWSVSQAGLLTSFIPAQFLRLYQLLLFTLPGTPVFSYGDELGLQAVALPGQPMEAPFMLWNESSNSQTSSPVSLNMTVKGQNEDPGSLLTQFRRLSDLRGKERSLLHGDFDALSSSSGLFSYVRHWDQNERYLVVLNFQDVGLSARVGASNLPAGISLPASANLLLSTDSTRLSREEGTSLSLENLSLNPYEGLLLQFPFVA
result.type: Comparison with the Binding of Phenylalanine

Here's what some known entries look like.
>>> measured_value("NC(Cc1cccc(CSc2nc3ccccc3[nH]2)n1)C(=O)O (centres unmarked) [Compound 27]")
"3 (X > 20 Rank 3)"
>>> measured_value("NC(Cc1cccc(CSc2nc3cc([N+](=O)[O-])ccc3[nH]2)c1)C(=O)O (centres unmarked) [Compound 79]")
"0 (X < 0 Rank 0)"
>>> measured_value("CC(=O)c1ccc(N2CCN(Cc3cccc(CC(N)C(=O)O)c3)CC2)cc1 (centres unmarked) [Compound 112]")
"3 (X > 20 Rank 3)"

Batch request: Comparison with the Binding of Phenylalanine for each of the following compounds.
1. NC(Cc1cccc(-c2cccc(Sc3nc(-c4ccccc4)c(-c4ccccc4)o3)c2)c1)C(=O)O (centres unmarked) [Compound 134]
2. NC(Cc1ccc(-c2ccc(CSc3nc(-c4ccccc4)c(-c4ccccc4)[nH]3)cc2)cc1)C(=O)O (centres unmarked) [Compound 149]

OUT:
1: 1 (0 < X < 10 Rank 1); 2: 2 (10 < X < 20 Rank 2)

====

biological target: L1 transport system (large neutral amino acid carrier, L1-system carrier) (Rattus norvegicus, UniProt Q63016); construct: functionality of their endogenous transporters such as the L1-system carrier; endogenous in cells; host or cells: rat primary cerebrovascular (brain microcapillary) endothelial cells, RBEC; assay: Competitive binding assay to the brain L1 transport system (L-[U-14C]phenylalanine on rat primary cerebrovascular endothelial cells); conditions: 10^−5 M
result.type: Comparison with the Binding of Phenylalanine

>>> measured_value("Cn1cnnc1SCc1ccc(-c2ccc(CC(N)C(=O)O)cc2)cc1 (stereo not drawn)")
"3 (X > 20 Rank 3)"
>>> measured_value("NC(=O)C(N)Cc1cccc(CSc2ncnc3[nH]ncc23)n1 (stereo not drawn)")
"0 (X < 0 Rank 0)"
>>> measured_value("NC(Cc1ccc(-c2ccc(CSc3ncccn3)cc2)cc1)C(=O)O (stereo not drawn)")
"3 (X > 20 Rank 3)"
>>> measured_value("NC(Cc1ccc(-c2ccc(CSc3ncccc3C(=O)O)cc2)cc1)C(=O)O (stereo not drawn)")
"0 (X < 0 Rank 0)"
>>> measured_value("O=C(Nc1ccc(-c2ccccc2)cc1)NC(Cc1cccc(CSc2nnnn2-c2ccccc2)c1)C(=O)O (stereo not drawn)")
"3 (X > 20 Rank 3)"
>>> measured_value("Cc1nc(SCc2cccc(CC(N)C(=O)O)n2)sc1CC(=O)O (stereo not drawn)")
"0 (X < 0 Rank 0)"
>>> measured_value("NC(Cc1cccc(CSc2nnnn2-c2ccc(O)cc2)c1)C(=O)O (stereo not drawn)")
"3 (X > 20 Rank 3)"
>>> measured_value("CC(=O)c1ccc(N2CCN(Cc3cccc(CC(N)C(=O)O)n3)CC2)cc1 (stereo not drawn)")
"2 (10 < X < 20 Rank 2)"

Let us move to another entry and its Comparison with the Binding of Phenylalanine.
IN: Please give the documented Comparison with the Binding of Phenylalanine of NC(Cc1cccc(CSc2nc3cc([N+](=O)[O-])ccc3[nH]2)c1)C(=O)O (stereo not drawn)
OUT: 3 (X > 20 Rank 3)

====

molecular target: L1 transport system (large neutral amino acid carrier, L1-system carrier) (Rattus norvegicus); construct: functionality of their endogenous transporters such as the L1-system carrier; endogenous in cells; host or cells: rat primary cerebrovascular (brain microcapillary) endothelial cells, RBEC; test: Competitive binding assay to the brain L1 transport system (L-[U-14C]phenylalanine on rat primary cerebrovascular endothelial cells); settings: 10^−5 M
Field: Comparison with the Binding of Phenylalanine. Provide a value for each of the molecules that follow.

>>> measured_value("CN(C)CCn1nnnc1SCc1cccc(CC(N)C(=O)O)c1 (centres unmarked) [Compound 73]")
"3 (X > 20 Rank 3)"
>>> measured_value("NC(Cc1ccc(-c2ccc(CN3CCN(c4ncccn4)CC3)cc2)cc1)C(=O)O (centres unmarked) [Compound 99]")
"0 (X < 0 Rank 0)"
>>> measured_value("O=C(O)C(Cc1cccc(CSc2nnc[nH]2)n1)NS(=O)(=O)c1ccc(F)cc1 (centres unmarked) [Compound 66]")
"3 (X > 20 Rank 3)"
>>> measured_value("Cc1ccnc(Sc2cccc(-c3cccc(CC(N)C(=O)O)c3)c2)n1 (centres unmarked) [Compound 136]")
"0 (X < 0 Rank 0)"
>>> measured_value("NC(Cc1cccc(CSc2nnc(-c3ccccc3)o2)c1)C(=O)O (centres unmarked) [Compound 1]")
"3 (X > 20 Rank 3)"

For every record below, what is its Comparison with the Binding of Phenylalanine?
1. O=C(Nc1ccc(-c2ccccc2)cc1)NC(Cc1cccc(CSc2nc3ccccc3[nH]2)n1)C(=O)O (centres unmarked) [Compound 62]
2. NC(Cc1cccc(CSc2ccnc3cc(C(F)(F)F)ccc23)n1)C(=O)O (centres unmarked) [Compound 45]
3. O=C(O)C(Cc1cccc(CSc2nnc(-c3ccncc3)o2)c1)NS(=O)(=O)c1ccc(F)cc1 (centres unmarked) [Compound 12]

OUT:
0 (X < 0 Rank 0)
2 (10 < X < 20 Rank 2)
0 (X < 0 Rank 0)

====

molecular target: L1 transport system (large neutral amino acid carrier, L1-system carrier) (Rattus norvegicus, UniProt Q63016); construct: functionality of their endogenous transporters such as the L1-system carrier; endogenous in cells; host or cells: rat primary cerebrovascular (brain microcapillary) endothelial cells, RBEC; assay: Competitive binding assay to the brain L1 transport system (L-[U-14C]phenylalanine on rat primary cerebrovascular endothelial cells); conditions: 10^−6 M
result.type: Comparison with the Binding of Phenylalanine

>>> measured_value("Cc1nnc(SCc2ccc(-c3ccc(CC(N)C(=O)O)cc3)cc2)s1 (stereo not drawn)")
"1 (0 < X < 10 Rank 1)"

Go through the list and state Comparison with the Binding of Phenylalanine for each entry.
1. Cc1nnc(SCc2cccc(CC(N)C(=O)O)n2)s1 (stereo not drawn)
2. NC(=O)C(N)Cc1cccc(CSc2nc3ccccc3o2)n1 (stereo not drawn)
3. NC(Cc1cccc(CSc2ccc3ccccc3n2)c1)C(=O)O (stereo not drawn)
4. Cc1nnc(Sc2cccc(-c3cccc(CC(N)C(=O)O)c3)c2)s1 (stereo not drawn)
5. O=C(Nc1ccc(-c2ccccc2)cc1)NC(Cc1cccc(CSc2nc3ccccc3[nH]2)n1)C(=O)O (stereo not drawn)
6. NC(Cc1cccc(CSc2nc3ccccc3c(=O)[nH]2)n1)C(=O)O (stereo not drawn)

OUT:
["1 (0 < X < 10 Rank 1)", "2 (10 < X < 20 Rank 2)", "2 (10 < X < 20 Rank 2)", "3 (X > 20 Rank 3)", "3 (X > 20 Rank 3)", "2 (10 < X < 20 Rank 2)"]

Cited source for all entries: patent US20060167057A1
